- target.under.test: T1, SURP1 (res. 48–110) of human SF3A1, K80Q mutant (human, UniProt Q15459 48-110, K80Q)
- T1 sequence: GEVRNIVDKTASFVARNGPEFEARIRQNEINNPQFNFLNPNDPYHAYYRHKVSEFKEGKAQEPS
- protocol: BLI
Ends that are not written are not given here.
readout.label: pKd
Value format note: pKd is -log10 of concentration (mol/L); just state the number.

**Query** May I ask what pKd has been recorded for QRPGDPQSAQDKARMDKEYLSLMAELGEAPVPA (peptide, UniProt Q15637 295-327, looked up, also: biotin (position not given here)) [biotin-tagged SF1 S1BRp (res. 295–327)] ?
**Result** 4.19

Hello, the source for this data is paper PMC9514218, in case you need it.
